Target: NL20 human bronchial epithelial cells expressing human Z-AAT (Homo sapiens, UniProt P01009, E366K)
Sequence (P01009 25-418 E366K): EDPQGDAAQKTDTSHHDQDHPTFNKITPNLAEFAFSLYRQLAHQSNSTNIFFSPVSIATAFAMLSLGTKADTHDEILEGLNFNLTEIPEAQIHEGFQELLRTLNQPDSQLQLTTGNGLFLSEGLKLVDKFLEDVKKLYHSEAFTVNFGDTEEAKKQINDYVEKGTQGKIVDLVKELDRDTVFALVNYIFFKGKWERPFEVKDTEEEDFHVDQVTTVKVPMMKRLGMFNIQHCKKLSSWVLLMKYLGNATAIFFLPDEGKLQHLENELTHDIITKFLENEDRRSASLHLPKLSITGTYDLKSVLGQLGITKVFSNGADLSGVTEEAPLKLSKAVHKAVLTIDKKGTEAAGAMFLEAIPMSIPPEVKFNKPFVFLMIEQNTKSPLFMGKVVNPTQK
Assay: AAT Function Assay (MSD Assay NL20-SI Cell Line)
Settings: read-out: NL20 Functional EC50
Provide the recorded EC50 for the entries that follow.

O=C(O)c1cccc(Oc2nc(C3CCOCC3)c(-c3ccc(F)c(F)c3)c3cccc(O)c23)c1 [Compound 348]
1200 to 3000 nM
Cc1cc(-c2c(C(C)C)nc([C@H](C)CC(=O)O)c3cc(O)ccc23)ccc1F [Compound 83]
1200 to 3000 nM
O=C(O)C1(CNc2nc3cc(O)ccc3c(-c3ccc(F)cc3F)c2C2CCOCC2)CC1 [Compound 329]
> 3000 nM
NC(=O)[C@H]1C[C@H](Oc2nc(C3CCOCC3)c(-c3ccc(F)c(F)c3)c3ccc(O)cc23)C1 [Compound 184]
< 1200 nM
O=c1c2cc(O)ccc2c(-c2ccc(F)cc2)c(C2CCOCC2)n1CCCO [Compound 160]
> 3000 nM
Cc1cc(-c2c(C3CCOCC3)nc(OC[C@@H](O)CO)c3cc(O)ccc23)ccn1 [Compound 209]
> 3000 nM

# batch: return EC50 for each of the 5 molecules below
1. CCc1nc(O[C@@H](C)C(=O)O)c2cc(O)ccc2c1-c1ccc(F)cc1 [Compound 168]
2. O=C(O)[C@H]1CCN(c2nc3cc(O)ccc3c(-c3ccc(F)cc3)c2C2CCOCC2)C1 [Compound 234]
3. Cc1cc(-c2c(C(C)C)c(CCCC(=O)O)nc3cc(O)ccc23)ccc1F [Compound 263]
4. CC(C)c1c(N2CC[C@H](C(=O)O)C2)nc2cc(O)ccc2c1-c1ccc(F)cc1 [Compound 257]
5. Oc1ccc2c(-c3ccc(F)cc3)c(C3CCOCC3)nc(OC3CC4(COC4)C3)c2c1 [Compound 135]

1. > 3000 nM
2. 1200 to 3000 nM
3. 1200 to 3000 nM
4. < 1200 nM
5. < 1200 nM

# batch: return EC50 for each of the 3 molecules below
1. COc1cc(C(=O)O)ccc1Oc1nc(C2CCOCC2)c(-c2ccc(F)c(C)c2)c2ccc(O)cc12 [Compound 98]
2. Cc1cc(-c2c(C3CCOCC3)nc(O[C@H]3C[C@H](C(=O)O)C3)c3cc(O)ccc23)ccn1 [Compound 185]
3. Cc1cc(-c2c(C3CCOCC3)nc(Oc3cccc(C(=O)O)c3)c3cc(O)ccc23)ccc1F [Compound 99]

["< 1200 nM", "< 1200 nM", "< 1200 nM"]

# batch: return EC50 for each of the 2 molecules below
1. O=C(O)c1ccc(Oc2nc3cc(O)ccc3c(-c3ccc(F)cc3)c2C2CCOCC2)cc1 [Compound 217]
2. OC[C@H]1C[C@H](Oc2nc(C3CCOCC3)c(-c3ccc(F)cc3)c3ccc(O)cc23)C1 [Compound 134]

1: < 1200 nM; 2: < 1200 nM
